# measurement.notes: Oral bioavailability in rat at 0.92 mg/kg
# Assay type: ADME, organism-based
# measurement.context: in vivo
metric.name: bioavailability (%)
The response must be a number in % with no trailing unit.

Note bioavailability for the molecule shown: Cc1sc(Nc2ccc(Cl)cc2F)nc1C(=O)N1CCc2ncccc2C1
100

* * *

# measurement.notes: Mean residence time in rat at 0.86 mg/kg, iv
# Type: ADME, organism-based
# Design: dose 0.86 mg/kg, route intravenous
# measurement.context: in vivo
metric.name: MRT (min)
Note: unit min is implicit; provide only the numeric part.

Tell us which MRT value is on record for CC1CCCN(C(=O)c2nc(Nc3cc4c(cc3F)OCO4)sc2Cl)C1C (stereo unspecified)
24

* * *

# measurement.notes: Oral bioavailability in rat at 1.06 mg/kg
# Format: ADME, organism-based
# measurement.context: in vivo
metric.name: bioavailability (%)
Write the answer as a number in %, unit excluded.

Supply recorded bioavailability for Cc1sc(Nc2ccc3c(c2)OCO3)nc1C(=O)N1CCc2ncccc2C1C (stereo unspecified) here.
65

* * *

# system: UniProt:Q8NER1
# Sequence (Q8NER1 whole entry): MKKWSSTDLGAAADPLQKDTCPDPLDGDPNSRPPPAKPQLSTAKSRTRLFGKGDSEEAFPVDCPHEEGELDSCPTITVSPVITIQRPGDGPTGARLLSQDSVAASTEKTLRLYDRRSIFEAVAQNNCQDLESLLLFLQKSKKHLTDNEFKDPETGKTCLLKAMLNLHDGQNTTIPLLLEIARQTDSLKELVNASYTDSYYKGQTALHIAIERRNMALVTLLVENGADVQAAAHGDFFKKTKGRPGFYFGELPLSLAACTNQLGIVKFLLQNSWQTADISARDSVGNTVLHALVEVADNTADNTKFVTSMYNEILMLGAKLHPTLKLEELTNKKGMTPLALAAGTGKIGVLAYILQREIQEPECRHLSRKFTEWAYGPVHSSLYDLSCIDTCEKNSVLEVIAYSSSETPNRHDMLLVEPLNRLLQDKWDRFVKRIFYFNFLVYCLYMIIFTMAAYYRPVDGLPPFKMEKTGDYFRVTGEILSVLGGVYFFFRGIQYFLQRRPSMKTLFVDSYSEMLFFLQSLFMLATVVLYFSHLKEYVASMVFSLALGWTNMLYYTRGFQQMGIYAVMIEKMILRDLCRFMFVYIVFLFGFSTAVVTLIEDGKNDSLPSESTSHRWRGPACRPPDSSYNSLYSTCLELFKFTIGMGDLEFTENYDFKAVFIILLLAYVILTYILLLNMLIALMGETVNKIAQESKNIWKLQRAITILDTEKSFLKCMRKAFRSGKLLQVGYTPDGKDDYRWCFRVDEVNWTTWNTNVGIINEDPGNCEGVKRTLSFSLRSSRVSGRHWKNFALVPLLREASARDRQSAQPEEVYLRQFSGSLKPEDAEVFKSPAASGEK
# measurement.notes: Inhibition of TRPV1 (unknown origin) by FLIPR assay
metric.name: IC50 (µM)
Only the number, expressed in µM, is required.

Please give measured IC50 of the following entry: Cc1sc(Nc2ccc(Cl)cc2F)nc1C(=O)N1CCC[C@H](C)[C@@H]1C
6.3

Look up and state reported IC50 for Cc1ccc(Nc2nc(C(=O)N3CCCC(C)C3C)cs2)cc1 (configuration not stated)
1.26

* * *

# measurement.notes: Cmax in rat at 1.06 mg/kg, iv
# Format: ADME, organism-based
# Parameters: dose 1.06 mg/kg, route intravenous
# measurement.context: in vivo
metric.name: Cmax (ng/mL)
Give the quantity in ng/mL, number only.

Item Cc1sc(Nc2ccc3c(c2)OCO3)nc1C(=O)N1CCc2ncccc2C1C (stereo unspecified) : provide Cmax
1800

* * *

# measurement.notes: Cmax in rat at 0.82 mg/kg, iv
# Type: ADME, organism-based
# Set-up: dose 0.82 mg/kg, route intravenous
# measurement.context: in vivo
metric.name: Cmax (ng/mL)
Report only the number, with the unit ng/mL understood.

Provide measured Cmax value, entry: Cc1sc(Nc2ccc(Cl)cc2F)nc1C(=O)N1CCC[C@H](C)[C@@H]1C
120

* * *

# measurement.notes: Cmax in rat at 0.92 mg/kg, iv
# Assay type: ADME, organism-based
# Parameters: dose 0.92 mg/kg, route intravenous
# measurement.context: in vivo
metric.name: Cmax (ng/mL)
The reply should contain only the number, in ng/mL.

Respond only with Cmax recorded for Cc1sc(Nc2ccc(Cl)cc2F)nc1C(=O)N1CCc2ncccc2C1
510

* * *

# measurement.notes: Mean residence time in rat at 1.05 mg/kg, iv
# Type: ADME, organism-based
# Design: dose 1.05 mg/kg, route intravenous
# measurement.context: in vivo
metric.name: MRT (h)
The reply should contain only the number, in h.

Write down MRT measured for item CC1CCCN(C(=O)c2csc(Nc3ccc4c(c3)OCO4)n2)C1C (stereo unspecified)
2.1

* * *

# measurement.notes: Cmax in rat at 0.86 mg/kg, iv
# Assay type: ADME, organism-based
# Parameters: dose 0.86 mg/kg, route intravenous
# measurement.context: in vivo
metric.name: Cmax (ng/mL)
A number alone suffices; assume ng/mL.

Give reported Cmax value for CC1CCCN(C(=O)c2nc(Nc3cc4c(cc3F)OCO4)sc2Cl)C1C (stereo unspecified)
490
